protocol.summary: Cytotoxicity against human MDM cells assessed as reduction in cell viability after 3 days by AlamarBlue assay
Type: cell-based
particulars: 72 h
readout.label: IC50
Show the value, then the unit it is measured in.

Q. Fill blank: measured IC50 of the compound Cc1ccc(Nc2nc(-c3cc(C(=O)Nc4ccccc4)no3)cs2)cc1 is ____.
A. 186 µM

Q. What do you get for Cc1ccc(Nc2nc(-c3cc(C(=O)Nc4ccccn4)no3)cs2)cc1 ?
A. 140 µM

----------
protocol.summary: Selectivity index, ratio of IC50 for human MDM cells to MIC90 for Mycobacterium tuberculosis H37Rv
Format: toxicity
particulars: read-out: Selectivity Index
readout.label: selectivity ratio

Q. So what does the record say about selectivity ratio for O=C(Nc1ccccc1)c1cc(-c2csc(Nc3cc(Cl)cc(Cl)c3)n2)on1 ?
A. > 500

Q. Follow-up item: Cc1ccc(Nc2nc(-c3cc(C(=O)Nc4ccccc4)no3)cs2)cc1
A. > 500
